# Subject Of Test: CDK2 (Homo sapiens, UniProt P24941)
# Construct: purchased in-house DSF panel (SGC Frankfurt)
# Protocol Description: DSF
# Assay type: binding
# Recorded Conditions: 10 μM compound
Recorded ΔTm at 10 µM for the following compounds
Measure Name: ΔTm at 10 µM

Compound: COC(=O)c1cc(Nc2ccnc(Nc3ccc(CCNC(=O)OC(C)(C)C)cc3)n2)[nH]n1 [21a]
Value Measured: 3.1 °C
//
Compound: Cc1cnc(Nc2ccc(CCNC(=O)OC(C)(C)C)cc2)nc1Nc1cc(C2CC2)n[nH]1 [12a]
Value Measured: 8.7 °C
//
Compound: CC(C)(C)OC(=O)NCCc1cccc(Nc2nccc(Nc3cc(C4CC4)n[nH]3)n2)c1 [11b]
Value Measured: 8.2 °C
//
Compound: COC(=O)c1cc(Nc2nc(NCCCCCNC(=O)OC(C)(C)C)ncc2Cl)[nH]n1 [22c]
Value Measured: 1.5 °C
